experiment: qHTS Assay for Lipid Storage Modulators in Drosophila S3 Cells; details: BODIPY lipid droplet fluorescence, 18-24 h, cells fed with added oleic acid; series mostly up to 46.1 µM
Screen size: about 320,000 compounds; about 2,100 (0.66%) were called active. Another 53% or so got no clear call; they are omitted. Calls come from the whole dose curve; as a rule, active = well fitted inhibition curve with a large enough effect in the signal ratio, with a control signal flat (not every such curve was filed as active); inconclusive = small, poorly fitted or top-dose-only effect, or effect the other way, or a change in a side signal; inactive = flat fitted curve, though single readings scatter; the % refers to the signal ratio. Many of the other results were omitted from the sample, so actives are more common in it than they were.
Respond only with the outcome that fits, drawn from TRUE = active, FALSE = inactive

Oc1ccccc1-n1c(-c2ccccc2)ccc1-c1ccccc1
TRUE
COC(c1ccccc1)c1nnc(CCC(=O)N2CCN(C3CCCC3)CC2)o1 (stereo unspecified)
FALSE
O=C(CN1C(=O)/C(=C/c2cccc(Br)c2)SC1=S)NCCCN1CCOCC1
FALSE
C/C(=N\O)c1c(O)cc(-c2ccccc2)n(-c2ccccc2)c1=O
FALSE
CCO[C@H]1OC(C(=O)N2CCN(C)CC2)=C[C@@H](c2ccc(Br)cc2)[C@@H]1CCCO
FALSE

Now consider a different compound.
Query: What did the test return for COC(c1ccccc1)c1nnc(CCC(=O)N2CCCCCCC2)o1 (stereo unspecified) ?
Reply: FALSE

###

experiment: qHTS Assay for Lipid Storage Modulators in Drosophila S3 Cells; details: BODIPY lipid droplet fluorescence, 18-24 h, cells fed with added oleic acid; measured here: cell count max response;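 for cell number change: cells counted by Cell Tracker Red CMTPX staining in the red channel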
The whole screen tested about 320,000 compounds, of which about 2,100 (0.66%) were called active. About 53% were inconclusive and are not listed. Many of the other results were omitted from the sample, so actives are more common in it than they were.
Each entry below lists one item and its recorded cell number change value.
Use % as the unit, but write only the number.

CN(C(=O)C1CCC(=O)N(Cc2ccccc2F)C1)C1CCOCC1 (stereo unspecified)
7.76
COc1ccc(C(=O)CSc2nnc(CNC(=O)c3ccccc3F)n2C)cc1OC
0.87
COc1cc(NC(=O)c2ccccc2)ccc1NC(=O)c1cc2ccccc2o1
-16.3
CCCC(=O)NCCSC
-17.4
CCOC(=O)N1CCN(c2c(NC3CCN(Cc4ccccc4)CC3)c(=O)c2=O)CC1
6.86

Query: Would you mind telling me what cell number change value was observed for O=C(N1CCCC1)C12CC3CCC(CC(C3)C1)C2 ?
Reply: 3.73

###

assay: qHTS Assay for Lipid Storage Modulators in Drosophila S3 Cells; conditions: BODIPY lipid droplet fluorescence, 18-24 h, cells fed with added oleic acid; series mostly up to 46.1 µM
Out of some 320,000 compounds screened, about 2,100 (0.66%) were called active. Roughly 53% stayed inconclusive and do not appear here. Calls come from the whole dose curve; as a rule, active = well fitted inhibition curve with a large enough effect in the signal ratio, with a control signal flat (not every such curve was filed as active); inconclusive = small, poorly fitted or top-dose-only effect, or effect the other way, or a change in a side signal; inactive = flat fitted curve, though single readings scatter; the % refers to the signal ratio. The entries come from a sample that favours actives as a whole.
Use one of these outcomes when replying: yes (1) = active, no (0) = inactive

COc1ccc(CC(=O)Nc2c3c(nn2C(C)(C)C)CS(=O)(=O)C3)cc1OC
no (0)
COc1ccccc1NC(=O)N1CCCC(CNC(=O)c2ccccc2Cl)C1 (centres undefined)
no (0)
CCN(CC)S(=O)(=O)c1ccc(OCC(=O)NC(=O)c2ccccc2OC)c([N+](=O)[O-])c1
no (0)
CCOC(CCn1c(SCC(=O)NC2CCCC2)nc2ccccc2c1=O)OCC
no (0)
Cc1[nH]n(C)c(=O)c1[N+](=O)[O-]
no (0)
CC(C)c1ccc(C(O)P(=O)(OCc2ccccc2)c2ccc(N(C)C)cc2)cc1 (centres undefined)
no (0)

Query: Recorded call for O=C(Nc1ccc(F)cc1)N1CCOCC1 ?
Reply: yes (1)

Query: For CCCCCCCCCCOC(=O)c1csc2nnsc12 , what call appears in the results of this test?
Reply: no (0)

Query: Assay outcome for Cc1ccc(C)c(OCc2nnc(SCC(=O)NCc3ccc4c(c3)OCO4)o2)c1 : what was it?
Reply: no (0)

Query: Tell me the assay call for O=C(NCCc1ccccc1)C1CCCN1C(=O)Nc1ccc(F)cc1 (centres undefined) please.
Reply: no (0)

Query: Which outcome was entered for the compound CC(=O)Nc1ccc(S(=O)(=O)NCC(=O)OCC(=O)N2CCCc3ccccc32)cc1 in this test?
Reply: no (0)

Query: Just curious, what result did CN(C)CCOC(=O)c1ccc2c(c1)S(=O)(=O)c1ccccc1C2=O get here?
Reply: no (0)

Query: Identify the outcome logged in this assay for the compound shown: O=C(NC1CCCC1)C1CCCN1C(=O)Oc1ccccc1 (centres undefined)
Reply: no (0)
